For each of the molecules below, state its disease control rating, PB.
System: Botrytis cinerea
Assay: In vivo fungicidal activity: Pepper Botrytis (PB); further: ranges in brackets are in %
Details: 200 ppm, sprayed before inoculation

Worked cases, answers included:
> print(dat)
                                   molecule               quantity.name  readout.value
1  C[C@@H]1CN(C2CCC3(CCC(C(C)(C)C)CC3)C2)C[C@H](C)O1 (stereo partly shown)  disease control rating, PB        9 (100)
2  CC1CCC(NC2CCC3(CCC(C(C)(C)C)CC3)C2)CC1 (stereo not shown)  disease control rating, PB      7 (90-95)
3  CC(C)(C)C1CCC2(CCC(NC3CCCCC3)C2)CC1 (stereo not shown)  disease control rating, PB        9 (100)
4  CN(C1CCCCC1)C1CCC2(CCC(C(C)(C)C)CC2)C1 (stereo not shown)  disease control rating, PB      8 (96-99)
5  CCCCC(CC)NC1CCC2(CCC(C(C)(C)C)CC2)C1 (stereo not shown)  disease control rating, PB        9 (100)

For every listed record, write down its disease control rating, PB.
1. CC(C)(C)C1CCC2(CCC(NCc3ccc(Cl)cc3)C2)CC1 (stereo not shown)
2. CC(C)CNC1CCC2(CCC(C(C)(C)C)CC2)C1 (stereo not shown)

Result string:
1. 7 (90-95)
2. 6 (75-89)

---

Tested on: Erysiphe graminis f. sp. tritici
Assay: In vivo fungicidal activity: Wheat Powdery Mildew (WPM); further: ranges in brackets are in %
Settings: 200 ppm, sprayed before inoculation
quantity.name: disease control rating, WPM

> print(dat)
                                   compound                quantity.name  readout.value
1  CCCCC(CC)NC1CCC2(CCC(C(C)(C)C)CC2)C1 (stereo not drawn)  disease control rating, WPM      8 (96-99)
2  CC(C)(C)C1CCC2(CCC(NC3CCCCC3)C2)CC1 (stereo not drawn)  disease control rating, WPM      8 (96-99)
3  CC(C)(C)C1CCC2(CCC(NC3CCCCCC3)C2)CC1 (stereo not drawn)  disease control rating, WPM      6 (75-89)
4  CC1CCCC(NC2CCC3(CCC(C(C)(C)C)CC3)C2)C1 (stereo not drawn)  disease control rating, WPM      3 (30-44)
5  CC1CCC(NC2CCC3(CCC(C(C)(C)C)CC3)C2)CC1 (stereo not drawn)  disease control rating, WPM      7 (90-95)

Give disease control rating, WPM for each listed item.
1. CC(C)(C)C1CCC2(CCC(NCc3ccc(Cl)cc3)C2)CC1 (stereo not drawn)
2. C[C@@H]1CN(C2CCC3(CCC(C(C)(C)C)CC3)C2)C[C@H](C)O1 (stereo partly drawn)
3. CC(C)(C)C1CCC2(CCC(NC3CCCC3)C2)CC1 (stereo not drawn)
4. CC1CC(C)CN(C2CCC3(CCC(C(C)(C)C)CC3)C2)C1 (stereo not drawn)
5. CC1CCN(C2CCC3(CCC(C(C)(C)C)CC3)C2)CC1 (stereo not drawn)
6. CN(C1CCCCC1)C1CCC2(CCC(C(C)(C)C)CC2)C1 (stereo not drawn)
7. CC(C)CNC1CCC2(CCC(C(C)(C)C)CC2)C1 (stereo not drawn)

Result string:
["5 (60-74)", "9 (100)", "6 (75-89)", "8 (96-99)", "7 (90-95)", "7 (90-95)", "5 (60-74)"]
